- Test system: OVCAR-4 ovarian
- method-summary: NCI tumour cell line growth inhibition, 48 h
test-readout: TGI

Summary for this compound, `Cc1nc2c(-c3ccccc3)[nH]c(C)c2c(=O)o1` : TGI is > 100 µM

Summary for this compound, `O=c1cccccc1NCCCCNc1cccccc1=O` : TGI is > 100 µM

Summary for this compound, CC1=C(C(=O)OC(C)C)C(c2ccccc2[N+](=O)[O-])C(C(=O)OC(CO[N+](=O)[O-])CO[N+](=O)[O-])=C(C)N1 (centres undefined) : TGI is 22.4 µM

Summary for this compound, COc1ccc(NC(=O)C(=O)C2NC(=S)NC2=O)c(OC)c1 (centres undefined) : TGI is > 100 µM

Summary for this compound, `Cc1nc(-c2nc([N+](=O)[O-])c([N+](=O)[O-])[nH]2)cs1` : TGI is > 100 µM

Summary for this compound, `CC(=O)Oc1cccc2c1C(=O)c1c(OC(C)=O)cc(C)cc1C2=O` : TGI is > 100 µM

Summary for this compound, CC(=O)OC1CCC2(C)C(=CC(C3C=C4CC(OC(C)=O)CCC4(C)C4=C3C3CC5OC6(CCC(C)CO6)C(C)C5C3(C)CC4)C3=C2CCC2(C)C3CC3OC4(CCC(C)CO4)C(C)C32)C1 (centres undefined) : TGI is 28.2 µM

Summary for this compound, CN(Cc1cnc2nc(N)nc(N)c2n1)c1ccc(C(=O)NC(CCC(=O)O)C(=O)O)cc1 (centres undefined) : TGI is > 100 µM

Summary for this compound, `CO[C@H]1O[C@@H]2CO[C@@H](c3ccccc3)O[C@H]2C[C@]12CCC/C=C\CO2` : TGI is > 75 µM

Summary for this compound, `O=C1C(c2ccccc2)=C(c2ccccc2)C(c2ccc(CCCCCCc3ccc(C4=C(c5ccccc5)C(=O)C(c5ccccc5)=C4c4ccccc4)cc3)cc2)=C1c1ccccc1` : TGI is > 100 µM

Summary for this compound, `COC(=O)CCC1=C(C)c2cc3[n-]c(cc4nc(cc5[n-]c(cc1n2)c(CCC(=O)OC)c5C)C=C4C)cc3C.[Cd+2]` : TGI is 7.14 µM

Summary for this compound, `COc1ccc2c(c1)OC13Oc4cc(OC)ccc4C=C1CCCC3=C2` : TGI is > 100 µM

Summary for this compound, C[C@@H]1C(O)CC[C@H](C)C12CC=CC2=O (some centres undefined) : TGI is > 100 µM

Summary for this compound, CC(C)[Si](OC1=CCCCCC12C(=O)N(C)c1ccccc12)(C(C)C)C(C)C (centres undefined) : TGI is > 100 µM

Summary for this compound, `Cc1ccc(S(=O)(=O)N/N=C2\C=C[C@]3(CC2)C(=O)N(C)c2ccccc23)cc1` : TGI is > 100 µM

Summary for this compound, C=C1C(C)C2C(Cc3ccccc3)NC(=O)C23C(OC(C)=O)/C=C/C(C)(O)CC(C)C/C=C/C3C1O (centres undefined) : TGI is 82.9 µM

Summary for this compound, NC(CSC(c1ccccc1)(c1ccccc1)c1ccc2ccccc2c1)C(=O)O (centres undefined) : TGI is 33.2 µM

Summary for this compound, `Cc1ccc(/C=N/Nc2ncccn2)s1` : TGI is > 100 µM

Summary for this compound, `CC/C(Cl)=N\OC(=O)Nc1ccc(C#N)cc1` : TGI is 23.6 µM
